# SUBJECT_OF_TEST: HLA-DR DRB1*0301 (human)
# ASSAY_PROTOCOL: competition with 125I-labeled reference peptide, purified HLA
VALUE_TYPE: pIC50
Just the number, please; pIC50 means minus log10 of the concentration in mol/L.

Notebook: QLLLEVEQEIRTFSF (modifications not checked) [Flu.NS2.180] , pIC50 read as 6.10

Notebook: FNPMIVELAEKTMKE (modifications not checked) [Flu.PA.12] , pIC50 read as 6.13

Just for reference, patent US20080032921A1 is where these values come from.
